- TGT: EIF2AK3 (PERK) catalytic domain (amino acids 536-1116) (Homo sapiens, UniProt Q9NZJ5)
- Construct: EIF2AK3 (PERK) catalytic domain (amino acids 536-1116)
- Sequence (Q9NZJ5 536-1116): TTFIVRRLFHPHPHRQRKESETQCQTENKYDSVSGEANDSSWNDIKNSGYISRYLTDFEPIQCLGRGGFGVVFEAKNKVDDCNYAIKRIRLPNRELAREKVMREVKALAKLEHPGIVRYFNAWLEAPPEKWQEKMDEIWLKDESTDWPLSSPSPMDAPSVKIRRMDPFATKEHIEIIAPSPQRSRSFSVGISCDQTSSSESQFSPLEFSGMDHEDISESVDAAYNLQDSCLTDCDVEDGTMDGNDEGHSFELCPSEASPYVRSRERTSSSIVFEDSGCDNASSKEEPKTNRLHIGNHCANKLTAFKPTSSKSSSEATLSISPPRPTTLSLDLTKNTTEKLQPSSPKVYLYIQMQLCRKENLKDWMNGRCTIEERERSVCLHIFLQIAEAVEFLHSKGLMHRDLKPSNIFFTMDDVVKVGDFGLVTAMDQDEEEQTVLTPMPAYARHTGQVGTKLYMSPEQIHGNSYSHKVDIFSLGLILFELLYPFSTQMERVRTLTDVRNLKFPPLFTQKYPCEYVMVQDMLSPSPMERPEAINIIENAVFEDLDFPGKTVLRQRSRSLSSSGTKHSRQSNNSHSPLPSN
- ASSAY NOTES: PERK in vitro activity assay (isolated), TR-FRET kinase assay
- Assay type: biochemical
- CONDITION PARAMETERS: isolated PERK enzyme, 1.5 μM ATP; read-out: Biochemical IC50
pIC50: −log10 of the molar value.
OBSERVATION TYPE: pIC50

INSERT INTO assay_data (compound, observation_type, result) VALUES
  ('Cc1nc(N)c2c(-c3ccc(NC(=O)C(O)c4cccc(Cl)c4)cc3F)cn(C)c2n1 (centres unmarked) [Example 82]', 'pIC50', '7.60 to 9.00'),
  ('Cc1cc(NC(=O)Cc2ccccc2F)ccc1-c1cn(C)c2ncnc(N)c12', 'pIC50', '7.60 to 9.00'),
  ('Cc1nc(N)c2c(-c3ccc(NC(=O)C(O)c4cccc(F)c4)cc3Cl)cn(C)c2n1 (centres unmarked) [Example 92]', 'pIC50', '7.60 to 9.00'),
  ('Cc1nc(N)c2c(-c3cnc(NC(=O)C(O)c4cccc(F)c4)cc3C)cn(C)c2n1 (centres unmarked) [Example 133]', 'pIC50', '6.30 to 6.60'),
  ('Cc1nc(N)c2c(-c3ccc(NC(=O)C(O)c4cc(F)cc(F)c4)c(F)c3F)cn(C)c2n1 (single isomer, unassigned) [Example 114]', 'pIC50', '6.30 to 6.60'),
  ('CCc1ccc(CC(=O)Nc2ccc(-c3cn(C)c4ncnc(N)c34)c(C)c2)cc1', 'pIC50', '7.60 to 9.00'),
  ('Cc1ccc(CC(=O)Nc2ccc(-c3cn(C)c4ncnc(N)c34)c(C)c2)cc1', 'pIC50', '7.60 to 9.00'),
  ('COc1ccccc1CC(=O)Nc1ccc(-c2cn(C)c3ncnc(N)c23)c(C)c1', 'pIC50', '7.60 to 9.00'),
  ('Cn1cc(-c2ccc(NC(=O)C(O)c3cccc(F)c3)cc2)c2c(N)ncnc21 (centres unmarked) [Example 30]', 'pIC50', '7.60 to 9.00'),
  ('Cc1cc(NC(=O)CCc2ccccc2)ccc1-c1cn(C)c2ncnc(N)c12', 'pIC50', '6.60 to 7.00'),
  ('Cc1nc(N)c2c(-c3ccc(NC(=O)C(O)c4cccc(C(F)(F)F)c4)nc3C)cn(C)c2n1 (centres unmarked) [Example 129]', 'pIC50', '7.60 to 9.00'),
  ('Cc1ccccc1CC(=O)Nc1ccc(-c2cn(C)c3ncnc(N)c23)c(C)c1', 'pIC50', '7.60 to 9.00'),
  ('Cc1nc(N)c2c(-c3ccc(NC(=O)C(O)c4cc(F)cc(C(F)(F)F)c4)cc3C)cn(C)c2n1 (single isomer, unassigned) [Example 55]', 'pIC50', '6.60 to 7.00'),
  ('Cc1cc(NC(=O)CC2CCC2)ccc1-c1cn(C)c2ncnc(N)c12', 'pIC50', '7.00 to 7.29'),
  ('Cc1cc(F)cc(C(O)C(=O)Nc2ccc(-c3cn(C)c4nc(C)nc(N)c34)c(C)c2)c1 (centres unmarked) [Example 56]', 'pIC50', '7.60 to 9.00'),
  ('Cc1nc(N)c2c(-c3ccc(NC(=O)C(O)c4cccc(C(F)(F)F)c4)cc3Cl)cn(C)c2n1 (centres unmarked) [Example 101]', 'pIC50', '7.60 to 9.00'),
  ('Cc1nc(N)c2c(-c3ccc(NC(=O)C(O)c4ccccc4C(F)(F)F)cc3F)cn(C)c2n1 (centres unmarked)', 'pIC50', '7.30 to 7.59'),
  ('Cn1cc(-c2ccc(NC(=O)C(O)c3cccc(F)c3)cc2Cl)c2c(N)ncnc21 (centres unmarked) [Example 15]', 'pIC50', '7.30 to 7.59'),
  ('Cc1cc(NC(=O)Cc2ccccc2Cl)ccc1-c1cn(C)c2ncnc(N)c12', 'pIC50', '7.60 to 9.00'),
  ('Cc1cc(NC(=O)C(F)(F)c2ccccc2)ccc1-c1cn(C)c2ncnc(N)c12', 'pIC50', '6.30 to 6.60'),
  ('Cc1nc(N)c2c(-c3c(C)cc(NC(=O)C(O)c4cccc(F)c4)cc3F)cn(C)c2n1 (centres unmarked)', 'pIC50', '7.60 to 9.00'),
  ('Cc1cc(NC(=O)Cc2ccccc2)ccc1-c1cn(C)c2ncnc(N)c12', 'pIC50', '7.60 to 9.00'),
  ('Cc1nc(N)c2c(-c3ccc(NC(=O)C(O)c4ccccc4C(F)(F)F)cc3C)cn(C)c2n1 (centres unmarked)', 'pIC50', '6.30 to 6.60'),
  ('Cc1cc(NC(=O)N(C)c2ccccc2)ccc1-c1cn(C)c2ncnc(N)c12', 'pIC50', '6.60 to 7.00'),
  ('Cc1cc(NC(=O)Cc2cccc(C)c2C)ccc1-c1cn(C)c2ncnc(N)c12', 'pIC50', '7.60 to 9.00'),
  ('Cc1nc(N)c2c(-c3ccc(NC(=O)C(O)c4cccc(C(F)(F)F)c4)c(F)c3F)cn(C)c2n1 (centres unmarked) [Example 107]', 'pIC50', '7.60 to 9.00'),
  ('Cc1nc(N)c2c(-c3ccc(NC(=O)C(O)c4cccc(F)c4)c(F)c3F)cn(C)c2n1 (single isomer, unassigned) [Example 110]', 'pIC50', '7.60 to 9.00'),
  ('Cc1cc(NC(=O)C(O)c2cccc(F)c2)ccc1-c1cn(C)c2nc(C(C)C)nc(N)c12 (centres unmarked)', 'pIC50', '6.60 to 7.00'),
  ('COc1cc(NC(=O)C(O)c2cccc(F)c2)ccc1-c1cn(C)c2ncnc(N)c12 (centres unmarked) [Example 103]', 'pIC50', '6.60 to 7.00'),
  ('Cc1cccc(C(O)C(=O)Nc2ccc(-c3cn(C)c4ncnc(N)c34)c(C)c2)c1 (centres unmarked)', 'pIC50', '7.60 to 9.00'),
  ('CCc1cccc(C(O)C(=O)Nc2ccc(-c3cn(C)c4nc(C)nc(N)c34)c(C)c2)c1 (centres unmarked) [Example 44]', 'pIC50', '6.60 to 7.00'),
  ('Cc1nc(N)c2c(-c3cc(F)c(NC(=O)C(O)c4cccc(F)c4)cc3F)cn(C)c2n1 (centres unmarked)', 'pIC50', '7.60 to 9.00');

---

Entries and their IC50 values follow.
- Tested on: GFP-eIF2α in HEK293 cells
- ASSAY NOTES: PERK cellular assay, TR-FRET in HEK293-EGFP-eIF2a cells after tunicamycin-induced ER stress
- Assay type: cell-based
- CONDITION PARAMETERS: HEK293-EGFP-eIF2a cells, tunicamycin 2 hours; read-out: Cellular eIF2α IC50
OBSERVATION TYPE: IC50

INSERT INTO measurements (molecule, tgt, observation_type, result) VALUES
  ('Cc1nc(N)c2c(-c3ccc(NC(=O)C(O)c4cc(F)cc(C(F)(F)F)c4)cc3F)cn(C)c2n1 (stereo not drawn) [Example 88]', 'GFP-eIF2α in HEK293 cells', 'IC50', '0.251 to 0.5 µM'),
  ('Cn1cc(-c2ccc(NC(=O)C(O)c3cccc(F)c3)cc2Cl)c2c(N)ncnc21 (stereo not drawn) [Example 14]', 'GFP-eIF2α in HEK293 cells', 'IC50', '0.001 to 0.025 µM'),
  ('Cc1nc(N)c2c(-c3ccc(NC(=O)C(O)c4cccc(Cl)c4)cc3Cl)cn(C)c2n1 (stereo not drawn) [Example 99]', 'GFP-eIF2α in HEK293 cells', 'IC50', '0.001 to 0.025 µM'),
  ('CCc1cccc(C(O)C(=O)Nc2ccc(-c3cn(C)c4nc(C)nc(N)c34)c(Cl)c2)c1 (stereo not drawn) [Example 98]', 'GFP-eIF2α in HEK293 cells', 'IC50', '0.251 to 0.5 µM'),
  ('Cc1nc(N)c2c(-c3ccc(NC(=O)C(O)c4cccc(F)c4)nc3C)cn(C)c2n1 (stereo not drawn) [Example 127]', 'GFP-eIF2α in HEK293 cells', 'IC50', '0.101 to 0.25 µM'),
  ('Cc1nc(N)c2c(-c3ccc(NC(=O)C(O)c4cccc5cnn(C)c45)cc3C)cn(C)c2n1 (single isomer, unassigned)', 'GFP-eIF2α in HEK293 cells', 'IC50', '3 to 4 µM'),
  ('Cc1nc(N)c2c(-c3ccc(NC(=O)C(O)c4cc(F)cc(C(F)(F)F)c4)c(F)c3F)cn(C)c2n1 (single isomer, unassigned) [Example 115]', 'GFP-eIF2α in HEK293 cells', 'IC50', '0.001 to 0.025 µM'),
  ('Cc1nc(N)c2c(-c3ccc(NC(=O)C(O)c4cccc(Cl)c4)cc3F)cn(C)c2n1 (stereo not drawn) [Example 82]', 'GFP-eIF2α in HEK293 cells', 'IC50', '0.001 to 0.025 µM'),
  ('Cc1cc(NC(=O)C(O)c2cccc(C(F)(F)F)c2)ccc1-c1cn(C)c2ncnc(N)c12 (stereo not drawn) [Example 47]', 'GFP-eIF2α in HEK293 cells', 'IC50', '0.001 to 0.025 µM');
